Value source: the supplement of paper PMC9170038

Each item that follows carries a reported apparent KD of MS2 coat protein.
tested on: MS2 coat protein; test: apparent KD of MS2 coat protein; designed switch direction (-1 OFF switch, 1 ON switch): 1; higher = weaker reporter binding; settings: Eterna round: R95; input ligand: microRNA oligo, concentration not stated
API: value field is a number in nM; no unit string.

{"columns": ["Biopolymer Sequence", "Target System", "apparent KD of MS2 coat protein / nM"],
 "data": [
  ["AGCGGAUAACAGUAGGAUAUGGCCAACGCCACAUGAGGAUCACCCAUGUCGUACCGGCACCUGGACUAGAAGGACUGCCUCCCGC [Ariscedi] (puzzle: Same State 2)", "MS2 coat protein", 22.8]
]}

Proceeding to the next sequence to report its apparent KD of MS2 coat protein.
*Q* Endpoint output: apparent KD of MS2 coat protein of AGUUGUGGAAAACUAUAGCAAAAGCAUGUACAUGAGGAUCACCCAUGUCAUGUACAAGCUUUUUGCUCGUCUUAUGG [ak 3 mod of one Eli's designs.] (puzzle: Sensor for hsa-mir-208a) . Value?
*A* 13.9

* * *

tested on: MS2 coat protein; test: apparent KD of MS2 coat protein; designed switch direction (-1 OFF switch, 1 ON switch): 1; higher = weaker reporter binding; settings: Eterna round: R98; input ligand: none
We use 100 nM as the dividing line for apparent KD of MS2 coat protein: on or above the line is class 1, below is class 0.

Worked examples follow.
{"columns": ["Biopolymer Sequence", "Label"],
 "data": [
  ["UGACGGCACACAGGAUAUAGUGCACAAAGUGUACUAGAAGGGUGAGCACUCGUCCGGGCACAUGAGGAUCACCCAUGUCGUCGA [Onusar]", "class 1"],
  ["UUUACAUGAGGAUCACCCAUGUAUGUCACCCAUGUGUGUAAUCAGGAUAUGAAAUAAAUAAUAAAUUAGAAGGGAUAACAUGAG [Attempt 1]", "class 0"],
  ["CUAAUUUAUUGAGGAUAUGCACAGGAUCACCGUGUAGAAGGCAUCAGGGAGAAGGUGCAGAGGAUCACCCUGUAAGGAUAUCAA [pwkr2 ssNG1 DX.3]", "class 1"],
  ["UGCACAUGAGGAUCACCCAUGUAUUGUUCGGUUUAUAGUAGUGAGGAUAUGCAAAGUAUAAGGAAGCAGAAGGCACAGGAUUCA [JR_SSNG3_Sub045]", "class 0"],
  ["GGACAUCCCACAGGAUAUGCUGGACUUUGUCCAGCAGAAGGGUGACAUGAGGAUCACCCAUGUAAUAGGAUGUCCAUAUUUAAU [Denovo 38]", "class 1"],
  ["GUAGCAUACCGAGGAUAUUCAUAUAAUAAAUAAACAUGAGGAUCACCCAUGUGGCGAAAGCCUAGGGAGAAGGCGGAAUGCUAU [salish99_SSNG2_r2_110]", "class 1"]
]}

*Q* Identify whether the reported apparent KD of MS2 coat protein of the following sequence is 100 nM or greater: GCCACAUGAGGAUCACCCAUGUACGGUUCCGUCUCAUUAGUGCAGGAUAUGUUCACCGGAAGUGUGCAGAAGGGUAAAAGUGGG [Onar]
*A* class 0

* * *

system: MS2 coat protein; test: apparent KD of MS2 coat protein; higher = weaker reporter binding; conditions: Eterna round: R107; input ligand: tryptophan 2.4 mM
Values of apparent KD of MS2 coat protein greater than or equal to 40 nM map to condition met; values below map to condition not met.

Here are 3 sequences together with their reported answers.
{"columns": ["Biopolymer Sequence", "Target System", "Label"],
 "data": [
  ["CAGAACAUGAGGAUCACCCAUGUCAGGGAUACCAGCUCAGACAUGGGCCCUUGGCAGCUCUGUGGCUGACGAAAGUCAGCAUCUG [#17 SameState-TheophyllineA]", "MS2 coat protein", "condition not met"],
  ["UGUAACAUGAGGAUCACCCAUGUGCACGAUACCAGCUUAUUGAUAGGCCCUUGGCAGCGUAUGCGGAAGCUGUAUAAUAUAUAUC [#27 SameState-TheophyllineA]", "MS2 coat protein", "condition not met"],
  ["AAUAGCUUGAGGAUCACCCAAGUAAAAGAUACCAGAGUGAUGAUCCUCCCUUGGCAGCUUAACGCUGAUUGAUUACAAUCAGCGA", "MS2 coat protein", "condition not met"]
]}

*Q* Please indicate if the recorded apparent KD of MS2 coat protein for AUAUGAUCAUGUGAUACCAGAAAUGGUAGUCUUCACUGGAUUACAUGAGGAUCACCCAUGUUCCCUUGGCAGCAUAUGAUCAUAU [#03 Exclusion-TheophyllineB] meets or exceeds 40 nM.
*A* condition met

*Q* Moving on to ACAUGAGGAUCACCCAUGUGAAGCAGGGUACGAGGACCGGUACGGCCGCCACUCGAGCAUUAUAACGAGUGAAUGGCAACGAUGU [whbob_Ex_trypto A_2s16]
*A* condition not met

*Q* Same lookup for GUAUACAUGAGGAUCACCCAUGUACCAGAAGGAGCGCUGGAAACAGCAGGUAGGUCGCUGGUAGGUCCUCUAUCUAGACGUUCGG [EAA NP+V+V2 #4] , please.
*A* condition met

* * *

test system: MS2 coat protein; experiment: apparent KD of MS2 coat protein; designed switch direction (-1 OFF switch, 1 ON switch): -1; higher = weaker reporter binding; settings: input ligand: none
Measured Endpoint: apparent KD of MS2 coat protein (µM)
Report the figure in µM without appending any unit label.

{"columns": ["Biopolymer Sequence", "apparent KD of MS2 coat protein (µM)"],
 "data": [
  ["GCAACGAGAGGAUAUGCUUAACGACCGGCGGAAGCGGAUCCACAUGAGGAUCACCCAUGUAGAAGGCUCGGACC [Eternabot (Original) Solution 24] (Eterna round: R97, puzzle: Exclusion 2)", 0.0274]
]}

# input for lookup
*Q* So what's the measured apparent KD of MS2 coat protein for this one? UUAAAUCAUGUAGGAUAUGCGUGGCGAAGCUAUGCAGAAGGACAUGAGGAUCACCCAUGUGCUUGCGUCUGAGUACAGAUGCUA [Mat - Exclusion NG 1 - Mod of JL - D4] (Eterna round: R96, puzzle: Exclusion NG 1)
*A* 0.117

* * *

test system: MS2 coat protein; experiment: apparent KD of MS2 coat protein; higher = weaker reporter binding; details: Eterna round: R107; input ligand: none
Measured Endpoint: apparent KD of MS2 coat protein
Quick note: unit goes after the number.

Example entries begin here.
{"columns": ["Biopolymer Sequence", "Target System", "apparent KD of MS2 coat protein"],
 "data": [
  ["GUAUACAUGAGGAUCACCCAUGUACCAGAAGGAGCGCUGGAAACAGCAGGUAGGUCGCUGGUAGGUCCUCUAUCUAGACGUUCUA [EAA NP+V+V2 #5]", "MS2 coat protein", "176 nM"],
  ["UCGCUCUGGGUGAAUUCCGGAGAUGUGGAAGGAGCGGACGAAAGUCCAGGUAGGUCGCCAUCGGACAUGAGGAUCACCCAUGUAC [Same State - Arginine A (Freestyle 22)]", "MS2 coat protein", "122 nM"],
  ["UUCAAAGGGAACGGUGCUGGUGACAGAGAUACCAGAGUAGUAAUACUCCCUUGGCAGCUCAGAACAUGAGGAUCACCCAUGUAAU [Exclusion Theophylline A GF22]", "MS2 coat protein", "18 nM"],
  ["CCGCACAUGAGGAUCACCCAUGUCAGGGAUACCAGCCCAGACAUGGGCCCUUGGCAGCCCUGUAGCUGACGAAAGUCAGCAGCGG [Omei Theo A SS A v1]", "MS2 coat protein", "31.7 nM"]
]}

*Q* # get_value(readout= apparent KD of MS2 coat protein, system= MS2 coat protein) for AGACAUGAGGAUCACCCAUGUAGUAUGGAUACCAGAUGUAGAUUAGUCCCUUGGCAGCUGUGCUGAAGUGAUGCAUUGCUCCUAG [#15 Exclusion-TheophyllineA]
*A* 22.1 nM

*Q* Param item: UUCAGCUAGUCGGCCGCCACUACAAGAGGAUCACCCUUGUAAUCCUAACACUGCUUCGGCAGUGGUAGGACCGGGACUAGCUGAG
*A* 14.4 nM

*Q* Param item: AUUGACAUGAGGAUCACCCAUGUAUCCGAAGGAGCGGCAGAUGUGCCAGGUAGGUCGCGGGUGAAAGAGACAUCGUAGGGUGUCG [Same State - Arginine A / B [only NuPack]]
*A* 256 nM

*Q* Same read-out for AUGCAUAUCAGAAGGAGCGUCAUUAACAUGAGGAUCACCCAUGUAACAUUGAAUUCGAUGAGACAGGUAGGUCGCUGAAUAGUAA [SS-ArgB26] ?
*A* 35.6 nM

*Q* Follow-up item: AAUAGCUUGAGGAUCACCCAAGUAAAAGAUACCAGAGUGAUGAUCCUCCCUUGGCAGCUUAACGCUGAUUGAUUACAAUCAGCGA
*A* 33.8 nM

*Q* Next: UGGUGUAGGGUAAAUAGGCUGAGUACAGAAGGAGCGCGAAUAAACGCAGGUAGGUCGCUGGACACAUGAGGAUCACCCAUGUUGA [Same State Arginine A GF 29]
*A* 20.5 nM

*Q* Also AUGCCUAGUGGAAGGAGCGAGGGUCUUCUCAACAUGAGGAUCACCCAUGUUCUUUUACACCCUCAGGUAGGUCGCCAUUGGGACA [Biraanve] ?
*A* 55 nM

*Q* What do you have for AGAAUAACAUGAGCAAAGCUCAUGUGCGAAGGAGCGGCGGAAACGCCAGGUAGGUCGCGCACAUGAGCAUCAGCCAUGUGUACCA [Omei Arginine B SS A v5] ?
*A* 30.7 nM
